Values compiled from patent US20210403579A1.

TESTED ON: T1, Human ST2 (human, UniProt Q01638 19-328, limits assumed)
T1 construct: also called human ST2 protein; Interleukin 1 receptor-like 1
T1 sequence (looked up): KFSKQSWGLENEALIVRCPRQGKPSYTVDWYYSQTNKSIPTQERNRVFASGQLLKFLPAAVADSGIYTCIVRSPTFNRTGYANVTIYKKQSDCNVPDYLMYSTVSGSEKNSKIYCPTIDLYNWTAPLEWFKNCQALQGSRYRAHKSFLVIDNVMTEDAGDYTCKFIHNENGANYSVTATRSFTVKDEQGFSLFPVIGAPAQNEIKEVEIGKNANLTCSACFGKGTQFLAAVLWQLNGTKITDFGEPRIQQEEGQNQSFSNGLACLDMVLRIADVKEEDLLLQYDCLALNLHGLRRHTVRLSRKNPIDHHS
METHOD: SPR (Carterra), antibody immobilized, ST2 analyte
binders and their reported Kd
Response body: numeric value in nM, unit text excluded.

[[record]]
binder = "Human ST2 IgG1 Antibody 15 (antibody, V domains shown, IgG1; also called ST2 Antibody 15) VH: QVQLVQSGAEVKKPGSSVKVSCKASGGTFSSYAISWVRQAPGQGLEWMGGIIPMFGTTNYAQKFQGRVTITADESTSTAYMELSSLRSEDTAVYYCATVAAAGPNWYFDLWGRGTLVTVSS VL: DIQMTQSPSSLSASVGDRVTITCQASQGISNYLNWYQQKPGKAPKLLIYAASTLQSGVPSRFSGSGSGTDFTLTISSLQPEDFATYYCQQSYSTPPTFGQGTKVEIKR"
measurement_type = "Kd"
observed_measurement = 769

[[record]]
binder = "Human ST2 IgG1 Antibody 16 (antibody, V domains shown, IgG1; also called ST2 Antibody 16) VH: QVQLVQSGAEVKKPGASVKVSCKASGYTFTSHYMHWVRQAPGQGLEWMGIINPSGGSTSYAQKFQGRVTMTRDTSTSTVYMELSSLRSEDTAVYYCARAGIGYLAAHDLYYYYGMDVWGRGTLVTVSS VL: EIVMTQSPATLSVSPGERATLSCRASQSVSSNFAWYQQKPGQAPRLLIYGASTRATGIPARFSGSGSGTEFTLTISSLQSEDFAVYYCQQYYSTPYTFGQGTKVEIKR"
measurement_type = "Kd"
observed_measurement = 96


Okay, next one:
Ask: Using the record for Human ST2 IgG1 Antibody 40 (antibody, V domains shown, IgG1; also called ST2 Antibody 40) VH: QVQLVQSGAEVKKPGASVKVSCKASGYTFTSYYIHWVRQAPGQGLEWMGIINPSADTTTYAQQFQGRVTMTRDTSTSTVYMELSSLRSEDTAVYYCARTPGNYGGNSLGYYYYYGMDVWGQGTLVTVSS VL: DIQMTQSPSSLSASVGDRVTITCRASQSVGTWLAWYQQKPGKAPKLLIYAASTLQSGVPSRFSGSGSGTDFTLTISSLQPEDFATYYCQQSYSSPLTFGPGTKVDIKR , state its measured Kd.
Reply: 691
